Below is a list of entries, each paired with its recorded % Adherent Cells (splenic), % normal control value.
system: splenic adherent cells; experiment: adjuvant-induced arthritis in the rat: % splenic adherent cells; assay type: in vivo; conditions: prophylactic, daily p.o. days 1-16; mg/kg: Compound 1 60, indomethacin 2.0, prednisolone 10, methotrexate 0.3, D-penicillamine 50
Give the value, in units of % normal control, as a plain number.

Solved cases below.
[[record]]
compound = "CN(Cc1cnc2nc(N)nc(N)c2n1)c1ccc(C(=O)N[C@@H](CCC(=O)O)C(=O)O)cc1 [METHOTREXATE, methotrexate]"
obs_value = 134

[[record]]
compound = "Fc1ccc(-c2nc3n(c2-c2ccncc2)CCS3)cc1 [Compound 1]"
obs_value = 98


I have this compound here, CC(C)(S)[C@@H](N)C(=O)O [D-PENICILLAMINE, d-penicillamine] , and I need its recorded % Adherent Cells (splenic), % normal control.
372

I have this compound here, C[C@]12C=CC(=O)C=C1CC[C@@H]1[C@@H]2[C@@H](O)C[C@@]2(C)[C@H]1CC[C@]2(O)C(=O)CO [PREDNISOLONE, Prednisolone] , and I need its recorded % Adherent Cells (splenic), % normal control.
184

I have this compound here, COc1ccc2c(c1)c(CC(=O)O)c(C)n2C(=O)c1ccc(Cl)cc1 [INDOMETHACIN, indomethacin] , and I need its recorded % Adherent Cells (splenic), % normal control.
480

---

system: IL-1 production by splenic adherent cells; experiment: adjuvant-induced arthritis in the rat: IL-1 production by LPS-stimulated splenic adherent cells; format: in vivo; settings: therapeutic, daily p.o. days 14-16; mg/kg: Compound 1 60, indomethacin 2.0, prednisolone 10, methotrexate 0.3, D-penicillamine 50
Below is a list of entries, each paired with its recorded IL-1 Production (splenic adherent cells), % normal control value.

Solved cases below.
[[record]]
molecule = "Fc1ccc(-c2nc3n(c2-c2ccncc2)CCS3)cc1"
obs_value = "392 ± 129 % normal control"

[[record]]
molecule = "COc1ccc2c(c1)c(CC(=O)O)c(C)n2C(=O)c1ccc(Cl)cc1"
obs_value = "330 ± 121 % normal control"

[[record]]
molecule = "CN(Cc1cnc2nc(N)nc(N)c2n1)c1ccc(C(=O)N[C@@H](CCC(=O)O)C(=O)O)cc1 [METHOTREXATE, methotrexate]"
obs_value = "436 ± 178 % normal control"

[[record]]
molecule = "CC(C)(S)[C@@H](N)C(=O)O"
obs_value = "374 % normal control"


Let us move to another entry and its IL-1 Production (splenic adherent cells), % normal control.
I have this molecule here, C[C@]12C=CC(=O)C=C1CC[C@@H]1[C@@H]2[C@@H](O)C[C@@]2(C)[C@H]1CC[C@]2(O)C(=O)CO , and I need its recorded IL-1 Production (splenic adherent cells), % normal control.
300 ± 280 % normal control

---

test: in vitro; type: cell-based, human; conditions: human, peripheral blood monocytes
OBSERVABLE: viability at 24 h, 10 µM

I have this compound here, CC(Cc1ccc(O)c(O)c1)C(C)Cc1ccc(O)c(O)c1 (stereo not shown) [NDGA, nordihydroguaiaretic acid] , and I need its recorded viability at 24 h, 10 µM.
~50%

---

Below is a list of entries, each paired with its recorded % Adherent Cells (splenic), % normal control value.
test system: splenic adherent cells; experiment: adjuvant-induced arthritis in the rat: % splenic adherent cells; format: in vivo; conditions: therapeutic, daily p.o. days 14-16; mg/kg: Compound 1 60, indomethacin 2.0, prednisolone 10, methotrexate 0.3, D-penicillamine 50
Give the value, in units of % normal control, as a plain number.

[[record]]
compound = "C[C@]12C=CC(=O)C=C1CC[C@@H]1[C@@H]2[C@@H](O)C[C@@]2(C)[C@H]1CC[C@]2(O)C(=O)CO [PREDNISOLONE, Prednisolone]"
tested_system = "splenic adherent cells"
obs_value = 82

[[record]]
compound = "CC(C)(S)[C@@H](N)C(=O)O [D-PENICILLAMINE, d-penicillamine]"
tested_system = "splenic adherent cells"
obs_value = 217

[[record]]
compound = "CN(Cc1cnc2nc(N)nc(N)c2n1)c1ccc(C(=O)N[C@@H](CCC(=O)O)C(=O)O)cc1 [METHOTREXATE, methotrexate]"
tested_system = "splenic adherent cells"
obs_value = 284

[[record]]
compound = "Fc1ccc(-c2nc3n(c2-c2ccncc2)CCS3)cc1 [Compound 1]"
tested_system = "splenic adherent cells"
obs_value = 216


Let us move to another entry and its % Adherent Cells (splenic), % normal control.
I have this compound here, COc1ccc2c(c1)c(CC(=O)O)c(C)n2C(=O)c1ccc(Cl)cc1 [INDOMETHACIN, indomethacin] , and I need its recorded % Adherent Cells (splenic), % normal control.
394
